Test Target: Genome polyprotein (Dengue virus type 2 (strain 16681-PDK53)) (UniProt P29991)
Sequence (P29991 whole entry, looked up): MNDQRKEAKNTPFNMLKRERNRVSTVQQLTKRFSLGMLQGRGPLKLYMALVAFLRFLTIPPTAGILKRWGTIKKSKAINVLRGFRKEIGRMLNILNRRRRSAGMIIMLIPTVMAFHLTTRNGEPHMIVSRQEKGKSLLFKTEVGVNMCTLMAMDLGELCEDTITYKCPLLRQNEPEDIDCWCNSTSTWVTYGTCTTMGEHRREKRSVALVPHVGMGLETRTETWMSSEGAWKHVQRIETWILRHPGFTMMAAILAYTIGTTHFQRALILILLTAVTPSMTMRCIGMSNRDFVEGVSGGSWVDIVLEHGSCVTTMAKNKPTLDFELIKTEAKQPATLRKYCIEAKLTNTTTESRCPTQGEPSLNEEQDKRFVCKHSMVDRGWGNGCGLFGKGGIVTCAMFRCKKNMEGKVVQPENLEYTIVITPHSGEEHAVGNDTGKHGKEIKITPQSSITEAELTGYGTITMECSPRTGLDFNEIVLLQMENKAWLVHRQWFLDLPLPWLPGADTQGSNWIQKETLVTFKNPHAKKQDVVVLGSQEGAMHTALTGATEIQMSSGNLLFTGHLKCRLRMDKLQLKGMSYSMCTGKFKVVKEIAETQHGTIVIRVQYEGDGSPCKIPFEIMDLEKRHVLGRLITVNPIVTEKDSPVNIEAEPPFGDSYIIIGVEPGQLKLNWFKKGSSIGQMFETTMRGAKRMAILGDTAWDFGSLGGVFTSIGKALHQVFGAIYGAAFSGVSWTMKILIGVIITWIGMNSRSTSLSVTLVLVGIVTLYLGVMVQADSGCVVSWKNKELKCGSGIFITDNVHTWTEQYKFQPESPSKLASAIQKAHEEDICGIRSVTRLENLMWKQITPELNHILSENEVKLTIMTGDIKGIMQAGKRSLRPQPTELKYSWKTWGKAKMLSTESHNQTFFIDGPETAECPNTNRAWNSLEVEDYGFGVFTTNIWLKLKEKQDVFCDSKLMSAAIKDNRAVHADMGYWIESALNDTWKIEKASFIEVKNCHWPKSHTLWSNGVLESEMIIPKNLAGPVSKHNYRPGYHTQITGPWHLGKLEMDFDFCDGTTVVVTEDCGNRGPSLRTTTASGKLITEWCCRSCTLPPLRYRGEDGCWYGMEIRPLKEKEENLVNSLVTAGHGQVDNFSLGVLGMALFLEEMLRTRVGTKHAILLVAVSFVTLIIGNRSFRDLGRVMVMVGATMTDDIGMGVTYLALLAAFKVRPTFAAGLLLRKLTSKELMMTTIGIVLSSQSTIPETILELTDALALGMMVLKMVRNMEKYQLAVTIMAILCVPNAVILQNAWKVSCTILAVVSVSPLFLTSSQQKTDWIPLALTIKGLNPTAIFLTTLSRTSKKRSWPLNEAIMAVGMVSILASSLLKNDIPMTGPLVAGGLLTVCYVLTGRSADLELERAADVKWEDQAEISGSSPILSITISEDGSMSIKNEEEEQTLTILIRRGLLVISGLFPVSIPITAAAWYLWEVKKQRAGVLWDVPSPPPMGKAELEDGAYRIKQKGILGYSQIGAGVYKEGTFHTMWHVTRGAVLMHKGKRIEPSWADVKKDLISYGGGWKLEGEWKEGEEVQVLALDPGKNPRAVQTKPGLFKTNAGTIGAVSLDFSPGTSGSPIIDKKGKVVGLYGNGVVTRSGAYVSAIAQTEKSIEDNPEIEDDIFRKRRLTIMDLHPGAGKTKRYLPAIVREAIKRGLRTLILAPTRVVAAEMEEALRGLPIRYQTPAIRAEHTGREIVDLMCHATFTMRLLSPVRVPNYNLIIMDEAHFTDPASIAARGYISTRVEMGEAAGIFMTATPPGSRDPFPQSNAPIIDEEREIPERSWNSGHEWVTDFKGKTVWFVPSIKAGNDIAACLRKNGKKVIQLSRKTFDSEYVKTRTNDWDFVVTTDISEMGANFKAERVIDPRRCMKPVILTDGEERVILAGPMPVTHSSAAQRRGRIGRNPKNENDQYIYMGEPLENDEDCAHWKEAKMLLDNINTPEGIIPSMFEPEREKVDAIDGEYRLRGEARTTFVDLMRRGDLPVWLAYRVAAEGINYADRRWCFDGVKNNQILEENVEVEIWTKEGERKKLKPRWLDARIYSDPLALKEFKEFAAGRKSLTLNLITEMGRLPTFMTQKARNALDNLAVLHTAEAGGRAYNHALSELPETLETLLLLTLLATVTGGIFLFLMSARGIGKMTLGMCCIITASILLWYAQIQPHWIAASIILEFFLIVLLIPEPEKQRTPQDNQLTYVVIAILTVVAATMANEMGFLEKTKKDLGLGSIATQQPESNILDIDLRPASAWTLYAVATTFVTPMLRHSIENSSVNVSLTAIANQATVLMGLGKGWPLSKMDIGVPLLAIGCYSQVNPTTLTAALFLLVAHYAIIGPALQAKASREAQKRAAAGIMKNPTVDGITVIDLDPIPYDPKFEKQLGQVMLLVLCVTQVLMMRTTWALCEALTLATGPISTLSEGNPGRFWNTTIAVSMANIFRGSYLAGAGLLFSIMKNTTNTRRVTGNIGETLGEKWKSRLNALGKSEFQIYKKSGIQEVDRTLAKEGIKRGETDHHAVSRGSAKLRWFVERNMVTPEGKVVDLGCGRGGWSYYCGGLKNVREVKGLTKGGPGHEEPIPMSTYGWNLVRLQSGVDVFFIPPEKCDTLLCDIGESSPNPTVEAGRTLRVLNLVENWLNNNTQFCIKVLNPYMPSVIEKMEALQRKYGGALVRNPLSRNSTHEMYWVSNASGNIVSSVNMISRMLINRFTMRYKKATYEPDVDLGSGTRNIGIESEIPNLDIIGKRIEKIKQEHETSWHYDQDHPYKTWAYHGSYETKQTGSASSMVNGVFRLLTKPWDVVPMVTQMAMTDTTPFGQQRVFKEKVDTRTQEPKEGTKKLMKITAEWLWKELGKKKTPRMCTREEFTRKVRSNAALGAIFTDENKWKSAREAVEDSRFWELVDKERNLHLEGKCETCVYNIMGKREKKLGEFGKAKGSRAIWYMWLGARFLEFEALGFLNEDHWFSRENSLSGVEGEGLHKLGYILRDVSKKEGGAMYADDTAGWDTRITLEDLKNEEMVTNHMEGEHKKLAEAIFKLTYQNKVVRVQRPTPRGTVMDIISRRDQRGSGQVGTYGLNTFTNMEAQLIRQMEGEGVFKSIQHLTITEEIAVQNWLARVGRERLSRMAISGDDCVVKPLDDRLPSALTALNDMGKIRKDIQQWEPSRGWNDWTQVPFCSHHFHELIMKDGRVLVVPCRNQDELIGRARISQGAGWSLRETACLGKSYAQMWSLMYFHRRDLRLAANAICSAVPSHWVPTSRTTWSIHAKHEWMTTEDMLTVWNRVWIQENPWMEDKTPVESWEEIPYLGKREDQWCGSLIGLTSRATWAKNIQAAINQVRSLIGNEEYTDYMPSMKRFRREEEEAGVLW
Assay Protocol: flavivirus cap methylation enzyme inhibition – biochemical, confirmation dose response, primary screen (AID 588689)
Conditions Used: Dengue-2 NS5 methyltransferase capping enzyme assay, at 25 µM, stronger effect = higher value
The whole screen tested about 340,000 compounds, of which about 1,000 (0.29%) were called active. Not all results are given here. Entries with a potency or affinity are not part of this list.
Below is a list of entries, each paired with its recorded inhibition value.

The examples below pair each entry with its known result.
### Prompt Consider the molecule shown here: Cc1cnn(C(=O)c2cc(-c3ccccn3)nc3ccc(Cl)cc23)c1 What is its recorded inhibition?
### Response 8.88% (inactive)

### Prompt Input COc1ccc(S(=O)(=O)Nc2ccc(O)c3ccccc23)cc1
### Response 70.6% (inactive)

### Prompt Input CCOc1ccc(S(=O)(=O)Nc2ccccc2SC)cc1
### Response 6.41% (inactive)

### Prompt Input COc1ccc(S(=O)(=O)c2c(C)c(NS(=O)(=O)c3ccccc3)cc(C)c2O)cc1
### Response -5.22% (inactive)

### Prompt Input CCOC(=O)c1ccccc1NS(=O)(=O)c1ccc(OCC)cc1
### Response -6.45% (inactive)

Now let's try a different one.
### Prompt Consider the molecule shown here: O=C1COC(c2ccccc2O)=NN1CCCl What is its recorded inhibition?
### Response 4.57% (inactive)

---

Below is a list of entries, each paired with its recorded inhibition value.
Test Target: Genome polyprotein (Dengue virus type 2 (strain 16681-PDK53)) (UniProt P29991)
Assay Protocol: flavivirus cap methylation enzyme inhibition – biochemical, confirmation dose response, primary screen (AID 588689)
Conditions Used: Dengue-2 NS5 methyltransferase capping enzyme assay, at 25 µM, stronger effect = higher value
Among all 340,000 compounds or so, about 1,000 (0.29%) were called active. A selection follows. Measured potencies and affinities stand elsewhere.
Report the figure in % without appending any unit label.

The examples below pair each entry with its known result.
### Prompt Entry N#C/C(=C/c1ccc(-c2ccccc2[N+](=O)[O-])o1)C(N)=O , system Genome polyprotein (Dengue virus type 2 (strain 16681-PDK53)) (UniProt P29991): what inhibition was measured?
### Response -17.5

### Prompt Input CC1=C(C#N)C(=O)NC(=O)/C1=C\c1ccc(-c2ccc(C)cc2[N+](=O)[O-])o1
### Response 23.7

### Prompt Input COc1cc2c(cc1OC)C1c3ccc(OC)c(OC)c3OCC1(O)C2 (stereo not given)
### Response 3.23

### Prompt Input O=C1C(=NO)CCCc2ccccc21
### Response -3.23

### Prompt Input O=[N+]([O-])c1ccccc1-c1ccc(/C=N/n2cnnc2)o1
### Response 1.62

More entries:
### Prompt Entry O=C(COc1ccc(S(=O)(=O)N2CCCCC2)cc1)NCC1CCCO1 (stereo not given) , system Genome polyprotein (Dengue virus type 2 (strain 16681-PDK53)) (UniProt P29991): what inhibition was measured?
### Response -5.9

### Prompt Input CCOC(=O)c1cc(-c2ccc(/C=C3/C(=O)NC(=O)C(C#N)=C3C)o2)ccc1Cl
### Response 44.5

### Prompt Input COc1ccccc1C(=O)Nc1ncc2c(n1)CC(c1ccco1)CC2=O (stereo not given)
### Response -1.36

### Prompt Input N#C/C(=C\c1ccc(-c2ccccc2[N+](=O)[O-])o1)C(N)=O
### Response -6.96

### Prompt Input CC(C)CC(COCc1cccc(Cl)c1)N1CCN(C(=O)c2cccc(C(F)(F)F)c2)CCC1=O (stereo not given)
### Response 0.79

Data credit: PubChem BioAssay AID588689
